SYSTEM_TESTED: EPHA1 (Homo sapiens)
Construct: ICE Bioscience Inc. (assay service)
Sequence (P21709 26-976): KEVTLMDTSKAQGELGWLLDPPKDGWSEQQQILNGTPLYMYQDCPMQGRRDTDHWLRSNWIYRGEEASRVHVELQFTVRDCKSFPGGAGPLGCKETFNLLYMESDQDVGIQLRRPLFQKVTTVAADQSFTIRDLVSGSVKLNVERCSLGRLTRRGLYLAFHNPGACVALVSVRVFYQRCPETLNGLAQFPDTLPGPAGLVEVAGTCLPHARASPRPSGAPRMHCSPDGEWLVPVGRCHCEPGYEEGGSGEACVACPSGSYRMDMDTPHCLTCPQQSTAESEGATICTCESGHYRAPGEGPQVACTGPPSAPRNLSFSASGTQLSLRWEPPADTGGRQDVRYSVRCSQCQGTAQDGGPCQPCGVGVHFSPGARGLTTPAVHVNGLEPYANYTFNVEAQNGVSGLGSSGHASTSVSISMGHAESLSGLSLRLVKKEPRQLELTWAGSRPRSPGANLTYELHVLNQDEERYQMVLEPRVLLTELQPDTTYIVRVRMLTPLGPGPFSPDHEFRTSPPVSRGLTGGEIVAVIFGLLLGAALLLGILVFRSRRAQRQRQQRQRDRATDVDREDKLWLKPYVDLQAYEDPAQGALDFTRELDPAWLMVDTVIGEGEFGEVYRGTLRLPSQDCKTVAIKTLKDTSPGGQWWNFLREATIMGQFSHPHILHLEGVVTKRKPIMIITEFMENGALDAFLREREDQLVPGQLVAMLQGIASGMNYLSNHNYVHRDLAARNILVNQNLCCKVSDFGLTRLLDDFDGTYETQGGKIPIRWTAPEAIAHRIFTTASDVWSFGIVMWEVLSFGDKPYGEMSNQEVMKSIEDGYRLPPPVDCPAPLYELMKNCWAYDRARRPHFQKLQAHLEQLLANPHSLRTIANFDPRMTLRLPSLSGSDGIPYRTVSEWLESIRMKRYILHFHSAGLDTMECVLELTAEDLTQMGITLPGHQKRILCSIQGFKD
TEST: In vitro selectivity assay
Assay type: biochemical
CONDITION_SET: selectivity panel

- COMPOUND: "Cn1cc(-c2cc3cnc(Nc4ccc(-c5cncn5/C=C/C(=O)NO)cc4Cl)cc3n2C(=O)OC(C)(C)C)cn1 [MPH-5]"
  IC50: "> 10 µM"

###

SYSTEM_TESTED: MERTK (Homo sapiens, UniProt Q12866)
Construct: ICE Bioscience Inc. (contract assay provider)
Sequence (Q12866 21-999): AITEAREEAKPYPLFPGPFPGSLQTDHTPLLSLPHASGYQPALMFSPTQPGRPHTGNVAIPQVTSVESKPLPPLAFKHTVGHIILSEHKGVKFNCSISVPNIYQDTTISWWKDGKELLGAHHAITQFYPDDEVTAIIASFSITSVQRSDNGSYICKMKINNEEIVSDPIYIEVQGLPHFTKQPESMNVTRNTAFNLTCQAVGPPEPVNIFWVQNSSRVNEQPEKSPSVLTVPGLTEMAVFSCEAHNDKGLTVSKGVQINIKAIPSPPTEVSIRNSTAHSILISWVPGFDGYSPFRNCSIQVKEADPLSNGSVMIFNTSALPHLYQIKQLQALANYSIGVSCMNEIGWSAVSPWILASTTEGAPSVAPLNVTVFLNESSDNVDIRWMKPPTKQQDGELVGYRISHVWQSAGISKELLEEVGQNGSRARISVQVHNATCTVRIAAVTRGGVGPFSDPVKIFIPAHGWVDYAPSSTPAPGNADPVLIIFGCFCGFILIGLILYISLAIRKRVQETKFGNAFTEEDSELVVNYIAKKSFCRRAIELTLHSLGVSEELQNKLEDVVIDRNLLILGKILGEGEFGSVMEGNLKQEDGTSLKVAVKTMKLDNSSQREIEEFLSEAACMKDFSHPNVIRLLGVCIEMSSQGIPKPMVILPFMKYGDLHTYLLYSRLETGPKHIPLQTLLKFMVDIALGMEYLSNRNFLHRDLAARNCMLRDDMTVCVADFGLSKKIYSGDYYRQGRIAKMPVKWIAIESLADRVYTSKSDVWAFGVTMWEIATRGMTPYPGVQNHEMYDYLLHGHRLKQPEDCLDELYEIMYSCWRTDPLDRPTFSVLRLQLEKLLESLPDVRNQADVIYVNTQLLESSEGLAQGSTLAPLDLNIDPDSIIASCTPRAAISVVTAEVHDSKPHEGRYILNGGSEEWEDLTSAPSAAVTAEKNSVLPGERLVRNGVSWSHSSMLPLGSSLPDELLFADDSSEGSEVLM
TEST: In vitro selectivity assay
Type: biochemical
CONDITION_SET: selectivity panel

- CHEM_SMILES: "Cn1cc(-c2cc3cnc(Nc4ccc(-c5cncn5/C=C/C(=O)NO)cc4Cl)cc3n2C(=O)OC(C)(C)C)cn1"
  SYSTEM_TESTED: "MERTK (Homo sapiens, UniProt Q12866)"
  IC50: "> 10 µM"

###

SYSTEM_TESTED: EPHB4 (Homo sapiens)
Sequence (P54760 16-987): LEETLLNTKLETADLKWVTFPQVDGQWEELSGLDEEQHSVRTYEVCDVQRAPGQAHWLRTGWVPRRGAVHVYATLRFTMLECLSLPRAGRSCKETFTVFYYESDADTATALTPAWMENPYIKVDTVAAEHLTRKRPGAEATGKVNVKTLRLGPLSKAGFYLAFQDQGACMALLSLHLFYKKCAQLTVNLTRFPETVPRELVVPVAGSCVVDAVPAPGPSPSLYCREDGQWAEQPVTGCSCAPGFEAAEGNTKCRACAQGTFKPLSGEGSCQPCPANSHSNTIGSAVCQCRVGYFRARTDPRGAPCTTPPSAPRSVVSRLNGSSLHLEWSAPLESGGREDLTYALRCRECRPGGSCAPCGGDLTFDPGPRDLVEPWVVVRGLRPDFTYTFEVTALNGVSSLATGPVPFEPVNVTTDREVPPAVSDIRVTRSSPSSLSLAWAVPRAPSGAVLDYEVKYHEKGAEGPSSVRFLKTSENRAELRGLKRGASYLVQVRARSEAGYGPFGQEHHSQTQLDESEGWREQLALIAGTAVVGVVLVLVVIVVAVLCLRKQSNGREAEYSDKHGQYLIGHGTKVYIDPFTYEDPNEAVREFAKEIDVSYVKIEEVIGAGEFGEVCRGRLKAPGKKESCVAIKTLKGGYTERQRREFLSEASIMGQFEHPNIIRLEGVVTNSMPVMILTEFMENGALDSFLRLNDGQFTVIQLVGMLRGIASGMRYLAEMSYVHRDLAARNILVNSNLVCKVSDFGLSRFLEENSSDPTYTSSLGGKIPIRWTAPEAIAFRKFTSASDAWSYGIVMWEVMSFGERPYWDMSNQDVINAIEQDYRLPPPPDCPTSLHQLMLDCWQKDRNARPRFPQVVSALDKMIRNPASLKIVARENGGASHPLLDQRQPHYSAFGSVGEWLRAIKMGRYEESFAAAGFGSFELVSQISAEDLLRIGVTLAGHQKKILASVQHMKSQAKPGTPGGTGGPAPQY
TEST: In vitro selectivity assay
Type: biochemical
CONDITION_SET: selectivity panel

- COMPOUND: "Cn1cc(-c2cc3cnc(Nc4ccc(-c5cncn5/C=C/C(=O)NO)cc4Cl)cc3n2C(=O)OC(C)(C)C)cn1 [MPH-5]"
  IC50: "> 10 µM"

###

SYSTEM_TESTED: EPHB2 (Homo sapiens)
Construct: ICE Bioscience Inc. (assay service)
Sequence (P29323 19-1055): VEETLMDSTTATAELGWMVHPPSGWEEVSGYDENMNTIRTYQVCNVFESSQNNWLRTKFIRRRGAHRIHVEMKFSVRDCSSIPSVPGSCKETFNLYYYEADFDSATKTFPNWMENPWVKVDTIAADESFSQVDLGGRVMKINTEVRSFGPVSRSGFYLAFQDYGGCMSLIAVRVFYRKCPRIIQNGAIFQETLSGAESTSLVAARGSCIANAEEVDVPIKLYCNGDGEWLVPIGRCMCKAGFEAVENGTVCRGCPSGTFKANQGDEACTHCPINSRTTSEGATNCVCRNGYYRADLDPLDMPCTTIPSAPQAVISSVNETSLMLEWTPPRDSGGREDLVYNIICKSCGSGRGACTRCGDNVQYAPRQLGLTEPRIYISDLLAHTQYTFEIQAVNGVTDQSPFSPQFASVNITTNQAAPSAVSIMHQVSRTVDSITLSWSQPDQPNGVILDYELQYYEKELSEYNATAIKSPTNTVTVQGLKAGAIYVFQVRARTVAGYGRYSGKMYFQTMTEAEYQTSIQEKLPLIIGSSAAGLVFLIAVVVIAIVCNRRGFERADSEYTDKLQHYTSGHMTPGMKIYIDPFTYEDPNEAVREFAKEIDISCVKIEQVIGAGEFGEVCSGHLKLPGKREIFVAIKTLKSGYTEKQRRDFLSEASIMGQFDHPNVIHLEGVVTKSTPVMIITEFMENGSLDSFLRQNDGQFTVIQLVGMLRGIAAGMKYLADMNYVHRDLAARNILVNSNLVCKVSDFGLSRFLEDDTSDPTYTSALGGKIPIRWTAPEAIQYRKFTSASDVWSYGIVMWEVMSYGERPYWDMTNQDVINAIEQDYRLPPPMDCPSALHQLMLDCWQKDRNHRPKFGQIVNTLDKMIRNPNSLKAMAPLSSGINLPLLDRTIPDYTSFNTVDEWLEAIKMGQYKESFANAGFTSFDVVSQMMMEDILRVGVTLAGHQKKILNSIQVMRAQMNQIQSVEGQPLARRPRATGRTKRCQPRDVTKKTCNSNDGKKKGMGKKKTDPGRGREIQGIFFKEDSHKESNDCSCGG
TEST: In vitro selectivity assay
Type: biochemical
CONDITION_SET: selectivity panel

- CHEM_SMILES: "Cn1cc(-c2cc3cnc(Nc4ccc(-c5cncn5/C=C/C(=O)NO)cc4Cl)cc3n2C(=O)OC(C)(C)C)cn1"
  IC50: "> 10 µM"
